// data source = paper PMC11339278

# Tested on: SNX17ΔC (residue 1-390) with an intramolecular decaHis tag (human) (UniProt Q15036)
# Measurement notes: ITC; APP or LRP1 peptide at 250 μM injected into 20 μM SNX17 FL or SNX17ΔC; 13 x 3.22 μL; 10 °C; 500 mM NaCl, 100 mM Tris pH 8.0, 5% glycerol; single site binding model

| Binder | Kd / µM |
| --- | --- |
| VEIGNPTYKMYEGG [LRP1 cargo recognition peptide (4466-4479)] | 4.6 |
| NGYENPTYKFFEQM [APP cargo recognition peptide (755-768)] | 7.03 |
